Source: patent US11357779B2

Measurement Description: Plasma concentration versus time of Compound I and metabolite Compound III in patients dosed QD or BID with Form B of Compound II plus fulvestrant
Assay type: in vivo, human
Particulars: human, plasma, oral, 300 mg, 300 mg QD of Form B, Day 29, 1.0 h, Median; read-out: Compound I Concentration
Observable: concentration at 1 h (µg/mL)
Lab book: enter the figure in µg/mL, no units written.

In plain terms, CC(C)N1CCN(c2ccc(Nc3ncc4cc5n(c4n3)C3(CCCCC3)CNC5=O)nc2)CC1 has a documented concentration at 1 h of 0.0154

* * *

Measurement Description: Plasma concentration versus time of Compound I and metabolite Compound III in patients dosed QD or BID with Form B of Compound II plus fulvestrant
Type: in vivo, human
Particulars: human, plasma, oral, 150 mg, 150 mg BID of Form B, Day 1, 6.0 h, Median; read-out: Compound I Concentration
Observable: concentration at 6 h
Could you write the number and then its unit?

Quick note, concentration at 6 h for CC(C)N1CCN(c2ccc(Nc3ncc4cc5n(c4n3)C3(CCCCC3)CNC5=O)nc2)CC1 landed at 10.4 ng/mL
